biological target: mouse TMEM16A mutant G510P (Mus musculus, UniProt Q8BHY3, G510P); construct: expressed in transfected cells; host or cells: HEK293T; assay: Inside-out patch recording of 1PBC block, mutant G510P; assay type: cell-based; conditions: G510P; V -120 mV
measurementName: pIC50
Please report pIC50 as the negative decimal logarithm of the molar concentration, giving only the number.

Prompt line: Output pIC50 of N#Cc1c(C(F)(F)F)cc(O)n2c1nc1ccccc12
Response line: 4.02

----------
Molecular target: mouse TMEM16A mutant N546A (Mus musculus, UniProt Q8BHY3, N546A)
Construct: expressed in transfected cells; host or cells: HEK293T
Sequence (Q8BHY3 1-960 N546A): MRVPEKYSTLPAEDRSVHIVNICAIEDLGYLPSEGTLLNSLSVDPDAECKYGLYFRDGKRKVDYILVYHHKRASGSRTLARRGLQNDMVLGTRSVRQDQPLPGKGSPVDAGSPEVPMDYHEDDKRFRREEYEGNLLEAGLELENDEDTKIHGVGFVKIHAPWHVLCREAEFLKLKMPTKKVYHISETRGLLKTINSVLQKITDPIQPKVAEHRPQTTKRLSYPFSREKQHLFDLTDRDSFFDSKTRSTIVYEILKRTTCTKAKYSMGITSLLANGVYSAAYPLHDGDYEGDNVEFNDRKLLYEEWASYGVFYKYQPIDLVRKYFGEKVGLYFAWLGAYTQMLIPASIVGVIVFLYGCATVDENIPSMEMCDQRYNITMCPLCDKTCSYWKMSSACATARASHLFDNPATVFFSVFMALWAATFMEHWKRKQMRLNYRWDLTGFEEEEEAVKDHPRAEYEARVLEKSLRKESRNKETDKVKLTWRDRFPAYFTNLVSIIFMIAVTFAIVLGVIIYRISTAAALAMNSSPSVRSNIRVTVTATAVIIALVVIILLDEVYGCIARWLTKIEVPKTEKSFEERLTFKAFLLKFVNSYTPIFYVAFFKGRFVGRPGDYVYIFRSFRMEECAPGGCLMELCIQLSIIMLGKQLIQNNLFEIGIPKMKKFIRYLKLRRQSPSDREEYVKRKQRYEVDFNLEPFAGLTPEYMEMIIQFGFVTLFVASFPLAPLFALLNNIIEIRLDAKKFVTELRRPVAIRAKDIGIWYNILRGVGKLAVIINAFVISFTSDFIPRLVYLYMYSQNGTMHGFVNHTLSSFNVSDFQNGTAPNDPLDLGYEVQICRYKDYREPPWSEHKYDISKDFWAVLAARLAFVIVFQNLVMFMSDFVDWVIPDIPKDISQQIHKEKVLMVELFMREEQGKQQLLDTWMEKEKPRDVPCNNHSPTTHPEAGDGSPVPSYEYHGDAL
Test: Inside-out patch recording of 1PBC block, mutant N546A
Type: cell-based
Details: 120 mV; 2 µM Ca2+
measurementName: IC50 (nM)
Provide the reading as a plain figure in nM.

Prompt line: Given N#Cc1c(C(F)(F)F)cc(O)n2c1nc1ccccc12 [1PBC] , respond with its IC50.
Response line: 238
